Cited source for all entries: paper PMC6701825

# Test system: TEAD-dependent transcriptional activity
# Method Summary: 8xTEAD secreted nanoluciferase (TEAD-NLUC) reporter assay in HeLa cells
# Format: cell-based, human
# Study Conditions: Homo sapiens, HeLa, 6 h, HeLa TEAD-NLUC, read-out: IC50, TEAD-dependent NLUC secretion
Measured Quantity: IC50

Data request: For Cc1ccc2c(c1)c1c3n2CCN(CC(O)CN2CCN(C(=O)c4ccco4)CC2)C3CCC1 (stereo not shown) [CPD3] , write its IC50.
Data returned: > 110 µM
